Test system: transactivating tegument protein VP16 (Human herpesvirus 1)
Assay: VP16 transactivation reporter inhibitors, counter-screen for SRC2 inhibitor project, cell-based, luminescence, single concentration (AID 652007)
Conditions: cell-based VP16 transactivation luciferase reporter, at 8.9 µM, active compounds read high
Each entry gets Not satisfied if its inhibition stays under 20%, and Satisfied if its inhibition is 20% or above.

- MOLECULE: "O=C(CCCN1C(=O)/C(=C/c2ccccc2Cl)SC1=S)NCCCN1CCOCC1"
  GROUP: "Satisfied"
- MOLECULE: "COCCN(C(=O)CCC(=O)Nc1nccs1)C(C(=O)NC(C)(C)C)c1ccc(C)cc1 (stereo not given)"
  GROUP: "Not satisfied"
- MOLECULE: "COc1cccc(/C=C2\\SC(=S)N(CCCC(=O)N3CCCCC3CCO)C2=O)c1 (stereo not given)"
  GROUP: "Satisfied"
- MOLECULE: "COc1cc(C(=O)/C=C/c2cccnc2)c([N+](=O)[O-])cc1OC"
  GROUP: "Not satisfied"
- MOLECULE: "O=C(N/N=C\\c1cc(Br)c(Br)o1)C1COc2ccccc2O1 (stereo not given)"
  GROUP: "Not satisfied"

---

Target: Nuclear receptor subfamily 5 group A member 2 (Homo sapiens) (UniProt O00482)
Sequence (O00482 whole entry, looked up): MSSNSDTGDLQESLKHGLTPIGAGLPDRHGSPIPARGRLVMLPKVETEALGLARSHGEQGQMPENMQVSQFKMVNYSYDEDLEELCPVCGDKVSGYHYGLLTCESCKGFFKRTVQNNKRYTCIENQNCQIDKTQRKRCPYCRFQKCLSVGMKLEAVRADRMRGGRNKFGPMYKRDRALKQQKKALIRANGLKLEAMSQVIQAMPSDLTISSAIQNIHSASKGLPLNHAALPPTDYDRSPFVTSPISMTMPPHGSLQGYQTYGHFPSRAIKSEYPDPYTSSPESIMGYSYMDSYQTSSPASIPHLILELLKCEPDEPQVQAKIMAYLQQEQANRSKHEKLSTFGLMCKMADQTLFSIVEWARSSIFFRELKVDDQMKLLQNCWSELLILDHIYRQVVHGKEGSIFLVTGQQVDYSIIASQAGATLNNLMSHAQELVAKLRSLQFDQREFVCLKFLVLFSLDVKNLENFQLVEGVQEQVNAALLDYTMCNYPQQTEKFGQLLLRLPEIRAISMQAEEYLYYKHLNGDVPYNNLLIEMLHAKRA
Assay: LRH-1 (NR5A2) inverse agonists, retest, confirmation, cell-based, luminescence (AID 651613);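 further: HEK293T cells co-transfected with LRH-1 and StAR promoter luciferase reporter; 0% = vehicle wells and 100% = parental cells lacking receptor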
Conditions: cell-based LRH-1 luciferase reporter, inverse agonism; at 3.6 µM; active compounds read high
Readings of inhibition for the listed compounds

- COMPOUND: "CN(Cc1ccccc1)C1=CC(=[N+]2CCCC2)CC(C)(C)C1"
  inhibition, %: 109
- COMPOUND: "O=C(CCl)N1CCN(S(=O)(=O)Cc2ccccc2)CC1"
  inhibition, %: 52.9
- COMPOUND: "c1ccc(Oc2nc(-c3cccnc3)nc3ccccc23)cc1"
  inhibition, %: 57.3
- COMPOUND: "CCC(c1nnnn1-c1c(C)cccc1C)N1CCN(c2ccc(C(F)(F)F)cc2[N+](=O)[O-])CC1 (stereo not given)"
  inhibition, %: 18.6
- COMPOUND: "CCOC(=O)C(C)Oc1cccc2c(=O)n(CC(=O)Nc3ccc(OCC)cc3)ccc12 (stereo not given)"
  inhibition, %: 60.1
- COMPOUND: "O=C(c1ccc([N+](=O)[O-])o1)N1CCc2ccccc21"
  inhibition, %: 51.8
- COMPOUND: "CCOC(=O)C(C(C)=O)c1c(Br)c(O)c(O)c2c(C(=O)c3ccc(C)cc3)coc12 (stereo not given)"
  inhibition, %: 94.8
- COMPOUND: "Cc1ccc(NCCN(C)C)c2c(=O)c3cc(O)ccc3sc12"
  inhibition, %: 67.3
- COMPOUND: "CCN(CC)S(=O)(=O)c1ccc(N2CCOCC2)c(NC(=O)c2[nH]c(C)c(C(C)=O)c2C)c1"
  inhibition, %: 51.5
- COMPOUND: "Cc1ccc(NC(=O)CSc2nnc(-c3n[nH]c4ccccc34)n2-c2ccccc2)c(C)c1"
  inhibition, %: 60.5

---

Tested on: transactivating tegument protein VP16 (Human herpesvirus 1)
Experiment: VP16 transactivation reporter inhibitors, counter-screen for SRC2 inhibitor project, cell-based, luminescence, single concentration (AID 652007)
Conditions: cell-based VP16 transactivation luciferase reporter, at 8.9 µM, active compounds read high

- MOLECULE: "c1ccc2c(-c3cccc4nccn34)cncc2c1"
  ASSAY SYSTEM: "transactivating tegument protein VP16 (Human herpesvirus 1)"
  RESULT UNITS: "%"
  inhibition: 5.09
- MOLECULE: "O=C(O)CCCc1ccc2c(c1)CCc1ccccc1-2"
  ASSAY SYSTEM: "transactivating tegument protein VP16 (Human herpesvirus 1)"
  RESULT UNITS: "%"
  inhibition: 29.6
- MOLECULE: "COc1ccc(C2CC(c3cccs3)=NN2C(=O)CCl)cc1OC (centres undefined)"
  ASSAY SYSTEM: "transactivating tegument protein VP16 (Human herpesvirus 1)"
  RESULT UNITS: "%"
  inhibition: 42.5
- MOLECULE: "COc1cc(SC)ccc1C(=O)Nc1nc(C)cs1"
  ASSAY SYSTEM: "transactivating tegument protein VP16 (Human herpesvirus 1)"
  RESULT UNITS: "%"
  inhibition: 50.1
- MOLECULE: "CCOC(=O)C(C(=O)OCC)C(Nc1cccc(Br)c1)c1ccccc1 (centres undefined)"
  ASSAY SYSTEM: "transactivating tegument protein VP16 (Human herpesvirus 1)"
  RESULT UNITS: "%"
  inhibition: 8.47
- MOLECULE: "c1ccc(CCc2nn3c(-c4ccncc4)nnc3s2)cc1"
  ASSAY SYSTEM: "transactivating tegument protein VP16 (Human herpesvirus 1)"
  RESULT UNITS: "%"
  inhibition: 1.28
- MOLECULE: "CN1/C(=C/C=C/c2n(C)c3cc([N+](=O)[O-])c([N+](=O)[O-])cc3[n+]2C)C(C)(C)c2ccccc21"
  ASSAY SYSTEM: "transactivating tegument protein VP16 (Human herpesvirus 1)"
  RESULT UNITS: "%"
  inhibition: 3.99
- MOLECULE: "COc1ccccc1N1CCN(C(CNC(=O)c2ccco2)c2cccnc2)CC1 (centres undefined)"
  ASSAY SYSTEM: "transactivating tegument protein VP16 (Human herpesvirus 1)"
  RESULT UNITS: "%"
  inhibition: -7.16
- MOLECULE: "Cc1cc(-c2ccccc2)n(-c2cc(N/N=C/c3ccccc3O)ncn2)n1"
  ASSAY SYSTEM: "transactivating tegument protein VP16 (Human herpesvirus 1)"
  RESULT UNITS: "%"
  inhibition: -0.63
- MOLECULE: "O=C(CNC(=O)c1ccc2c(c1)OCO2)Nc1cccc(Br)c1"
  ASSAY SYSTEM: "transactivating tegument protein VP16 (Human herpesvirus 1)"
  RESULT UNITS: "%"
  inhibition: -13.8
- MOLECULE: "O=C(OC(c1ccccc1)c1nccc2ccccc12)c1ccccc1 (centres undefined)"
  ASSAY SYSTEM: "transactivating tegument protein VP16 (Human herpesvirus 1)"
  RESULT UNITS: "%"
  inhibition: 30.1
- MOLECULE: "COc1ccc2nc(NC(=O)C3CCN(S(=O)(=O)c4cccc5nsnc45)CC3)sc2c1"
  ASSAY SYSTEM: "transactivating tegument protein VP16 (Human herpesvirus 1)"
  RESULT UNITS: "%"
  inhibition: 39.9
- MOLECULE: "CC(=O)CCc1ccc(OCCCCN2CCC(Cc3ccccc3)CC2)cc1"
  ASSAY SYSTEM: "transactivating tegument protein VP16 (Human herpesvirus 1)"
  RESULT UNITS: "%"
  inhibition: 13.2
- MOLECULE: "O=C(Nc1ncn[nH]1)c1ccc(Cl)c(S(=O)(=O)Nc2ccc(Cl)cc2)c1"
  ASSAY SYSTEM: "transactivating tegument protein VP16 (Human herpesvirus 1)"
  RESULT UNITS: "%"
  inhibition: -5.84
- MOLECULE: "CCN(CC)S(=O)(=O)c1cccc(C(=O)N/N=C/c2cccc(O)c2O)c1"
  ASSAY SYSTEM: "transactivating tegument protein VP16 (Human herpesvirus 1)"
  RESULT UNITS: "%"
  inhibition: -46.8
- MOLECULE: "Cc1cc(N)ccc1-n1nc2ccccc2n1"
  ASSAY SYSTEM: "transactivating tegument protein VP16 (Human herpesvirus 1)"
  RESULT UNITS: "%"
  inhibition: -7.48
- MOLECULE: "COc1ccc(C2C(O)C(c3c[nH]c4ccccc34)=NN2C(=O)CCl)cc1 (centres undefined)"
  ASSAY SYSTEM: "transactivating tegument protein VP16 (Human herpesvirus 1)"
  RESULT UNITS: "%"
  inhibition: 72.7
- MOLECULE: "CC(C)(C)c1ccc(-c2noc(CCC(=O)NCc3ccco3)n2)cc1"
  ASSAY SYSTEM: "transactivating tegument protein VP16 (Human herpesvirus 1)"
  RESULT UNITS: "%"
  inhibition: 40.9
- MOLECULE: "COc1ccc(/C=C2\\SC(=S)N(CCC(=O)N3CCCCC3CCO)C2=O)cc1 (centres undefined)"
  ASSAY SYSTEM: "transactivating tegument protein VP16 (Human herpesvirus 1)"
  RESULT UNITS: "%"
  inhibition: 1.26
- MOLECULE: "COc1ccccc1/C=C/C1(C(=O)NC2CCCC2)CC(=O)N1c1ccc(F)cc1 (centres undefined)"
  ASSAY SYSTEM: "transactivating tegument protein VP16 (Human herpesvirus 1)"
  RESULT UNITS: "%"
  inhibition: 19.7
- MOLECULE: "O=C1C2CCCN2C(=S)N1C1CCCCC1 (centres undefined)"
  ASSAY SYSTEM: "transactivating tegument protein VP16 (Human herpesvirus 1)"
  RESULT UNITS: "%"
  inhibition: 1.86
- MOLECULE: "COc1cccc(N2CCN(c3ncnc4c3[nH]c3ccc(F)cc34)CC2C)c1 (centres undefined)"
  ASSAY SYSTEM: "transactivating tegument protein VP16 (Human herpesvirus 1)"
  RESULT UNITS: "%"
  inhibition: 95.4
- MOLECULE: "NCCOc1ccc(C2CCCCC2)cc1"
  ASSAY SYSTEM: "transactivating tegument protein VP16 (Human herpesvirus 1)"
  RESULT UNITS: "%"
  inhibition: -53.7
- MOLECULE: "Cn1nc(C(F)(F)F)c(C#N)c1N1CCN(c2ccccc2)CC1"
  ASSAY SYSTEM: "transactivating tegument protein VP16 (Human herpesvirus 1)"
  RESULT UNITS: "%"
  inhibition: 4.83
- MOLECULE: "COc1ccc(C(=O)Nc2nc3ccccc3[nH]2)cc1"
  ASSAY SYSTEM: "transactivating tegument protein VP16 (Human herpesvirus 1)"
  RESULT UNITS: "%"
  inhibition: -57.5
- MOLECULE: "CCc1cccc(C)c1NC(=O)CSc1nnc(CCCOc2ccc(Cl)cc2Cl)n1C"
  ASSAY SYSTEM: "transactivating tegument protein VP16 (Human herpesvirus 1)"
  RESULT UNITS: "%"
  inhibition: -13.2
- MOLECULE: "O=C(O)CCC(=O)Nc1cccc(-c2csc(-c3ccccc3)n2)c1"
  ASSAY SYSTEM: "transactivating tegument protein VP16 (Human herpesvirus 1)"
  RESULT UNITS: "%"
  inhibition: 47.1
- MOLECULE: "COc1ccc2[nH]c(=O)c3c(c2c1)OC(C)(C)C=C3"
  ASSAY SYSTEM: "transactivating tegument protein VP16 (Human herpesvirus 1)"
  RESULT UNITS: "%"
  inhibition: 9.64
- MOLECULE: "C=CCc1cccc2cc(C(=O)Nc3ccc(CC(=O)O)cc3)c(=O)oc12"
  ASSAY SYSTEM: "transactivating tegument protein VP16 (Human herpesvirus 1)"
  RESULT UNITS: "%"
  inhibition: 12
- MOLECULE: "Cc1ccoc1C(=O)Nc1ccc(CC(=O)O)cc1"
  ASSAY SYSTEM: "transactivating tegument protein VP16 (Human herpesvirus 1)"
  RESULT UNITS: "%"
  inhibition: 41.7
- MOLECULE: "CC1=C(C(=O)OCc2ccc3c(c2)OCO3)C(c2cccc([N+](=O)[O-])c2)NC(=O)N1 (centres undefined)"
  ASSAY SYSTEM: "transactivating tegument protein VP16 (Human herpesvirus 1)"
  RESULT UNITS: "%"
  inhibition: -0.72
- MOLECULE: "O=C(O)c1ccccc1C(=O)Nc1ccc(Oc2cccc3ccccc23)cc1"
  ASSAY SYSTEM: "transactivating tegument protein VP16 (Human herpesvirus 1)"
  RESULT UNITS: "%"
  inhibition: 77.6
- MOLECULE: "CC(C)c1ccc(/C=C2\\CC/C(=C\\C=N\\N(C)C)C2=O)cc1"
  ASSAY SYSTEM: "transactivating tegument protein VP16 (Human herpesvirus 1)"
  RESULT UNITS: "%"
  inhibition: -56.7
- MOLECULE: "COc1cccc(/C=N/NC(=O)c2c(-c3ccccc3)noc2C)c1O"
  ASSAY SYSTEM: "transactivating tegument protein VP16 (Human herpesvirus 1)"
  RESULT UNITS: "%"
  inhibition: 2.72
- MOLECULE: "O=S(=O)(c1ccc2c(c1)OCCO2)N1CCN(c2ncnc3sccc23)CC1"
  ASSAY SYSTEM: "transactivating tegument protein VP16 (Human herpesvirus 1)"
  RESULT UNITS: "%"
  inhibition: 6.15
- MOLECULE: "Cc1cc(C)n2c(Nc3ccc4c(c3)OCCO4)c(-c3cc4ccccc4o3)nc2n1"
  ASSAY SYSTEM: "transactivating tegument protein VP16 (Human herpesvirus 1)"
  RESULT UNITS: "%"
  inhibition: -60.9
- MOLECULE: "CCn1c(Oc2ccccc2C)nc2c1c(=O)n(C)c(=O)n2C"
  ASSAY SYSTEM: "transactivating tegument protein VP16 (Human herpesvirus 1)"
  RESULT UNITS: "%"
  inhibition: 14.5
- MOLECULE: "O=C(NCCc1ccccc1F)c1ccc2c(c1)OCCO2"
  ASSAY SYSTEM: "transactivating tegument protein VP16 (Human herpesvirus 1)"
  RESULT UNITS: "%"
  inhibition: 74.1
- MOLECULE: "CCOc1cc(/C=C(/C#N)c2ccc(Cl)cc2)cc(Cl)c1OCC(=O)O"
  ASSAY SYSTEM: "transactivating tegument protein VP16 (Human herpesvirus 1)"
  RESULT UNITS: "%"
  inhibition: 77.6
- MOLECULE: "Cc1ccc(S(=O)(=O)CC(=O)N(CCCN(C)C)c2nc3ccc(C)cc3s2)cc1"
  ASSAY SYSTEM: "transactivating tegument protein VP16 (Human herpesvirus 1)"
  RESULT UNITS: "%"
  inhibition: -1.57
- MOLECULE: "Cc1ccc(N(C)C(=O)c2cc(S(=O)(=O)N3CCCCC3)c[nH]2)cc1"
  ASSAY SYSTEM: "transactivating tegument protein VP16 (Human herpesvirus 1)"
  RESULT UNITS: "%"
  inhibition: 1.11
- MOLECULE: "Cc1nc(-c2ccc(NC(=O)c3ccco3)cc2)cs1"
  ASSAY SYSTEM: "transactivating tegument protein VP16 (Human herpesvirus 1)"
  RESULT UNITS: "%"
  inhibition: 18.9
- MOLECULE: "Cc1nnc(SC(=O)N2c3ccccc3Sc3ccccc32)s1"
  ASSAY SYSTEM: "transactivating tegument protein VP16 (Human herpesvirus 1)"
  RESULT UNITS: "%"
  inhibition: 37.9
- MOLECULE: "CCOC(=O)[C@]12CCC=C1N(CCC1=CCCCC1)C(=O)[C@H](CC(=O)N1CCC(c3ccccc3)CC1)C2"
  ASSAY SYSTEM: "transactivating tegument protein VP16 (Human herpesvirus 1)"
  RESULT UNITS: "%"
  inhibition: 1.35
